B1: library; a variant is named by its letters at N, in order (parent)
chain: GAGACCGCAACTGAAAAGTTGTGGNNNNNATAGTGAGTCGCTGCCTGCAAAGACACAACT

# Variants of: B1
# RUN_DESCRIPTION: ligation selection enrichment (abundance after / before one-round selection) (fold); higher = more template-directed ligation activity
# PROTOCOL_CONDITIONS: with T7Psub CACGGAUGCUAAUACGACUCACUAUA; MgCl2 25 mM; 42 °C; 4 h; pH 8.5
Response key: 1 means ligation selection enrichment >= 0.2; 0 means ligation selection enrichment < 0.2.

# example entries with known answers
RECORD_SEQUENCE	LABEL_CLASS
GAGACCGCAACTGAAAAGTTGTGGAAGATATAGTGAGTCGCTGCCTGCAAAGACACAACT	1
GAGACCGCAACTGAAAAGTTGTGGCGAATATAGTGAGTCGCTGCCTGCAAAGACACAACT	1
GAGACCGCAACTGAAAAGTTGTGGACCCGATAGTGAGTCGCTGCCTGCAAAGACACAACT	1
GAGACCGCAACTGAAAAGTTGTGGAAGTAATAGTGAGTCGCTGCCTGCAAAGACACAACT	1
GAGACCGCAACTGAAAAGTTGTGGGGTCAATAGTGAGTCGCTGCCTGCAAAGACACAACT	1

Exercise: ligation selection enrichment >= 0.2 for GAGACCGCAACTGAAAAGTTGTGGATCGCATAGTGAGTCGCTGCCTGCAAAGACACAACT ?
Key: 1

Exercise: Do the same for GAGACCGCAACTGAAAAGTTGTGGTCTTAATAGTGAGTCGCTGCCTGCAAAGACACAACT please
Key: 0
